# Tested target: RON (Homo sapiens)
# Sequence (Q04912 913-1400): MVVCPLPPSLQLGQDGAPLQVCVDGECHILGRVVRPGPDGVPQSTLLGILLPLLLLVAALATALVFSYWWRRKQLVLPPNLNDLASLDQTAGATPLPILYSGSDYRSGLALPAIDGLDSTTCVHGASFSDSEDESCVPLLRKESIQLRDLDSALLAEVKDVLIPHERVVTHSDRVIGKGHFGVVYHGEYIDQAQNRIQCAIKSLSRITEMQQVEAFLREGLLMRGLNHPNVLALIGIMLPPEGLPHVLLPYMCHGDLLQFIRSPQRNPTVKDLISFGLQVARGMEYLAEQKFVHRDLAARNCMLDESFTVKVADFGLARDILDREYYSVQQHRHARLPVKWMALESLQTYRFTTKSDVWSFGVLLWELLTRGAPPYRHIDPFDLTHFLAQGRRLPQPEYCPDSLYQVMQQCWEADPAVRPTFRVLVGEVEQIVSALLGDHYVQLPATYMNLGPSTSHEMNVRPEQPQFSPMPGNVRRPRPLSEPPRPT
# Protocol notes: sfRON cell mechanistic assay (HeLa), phosphorylated RON ELISA
# Format: cell-based
# Conditions used: HeLa cells transfected with sfRON; inhibition of phosphorylated RON; four hours incubation; at least duplicate experiments; read-out: sfRON mech IC50
pIC50: −log10 of the molar value.
Recorded metric: pIC50

{"Smiles notation": "COc1ccc(F)c(Cl)c1[C@@H](C)c1c[nH]c2ncc(-c3cnn(C)c3N)cc12", "pIC50": "6.00 to 6.70"}
{"Smiles notation": "[2H][C@@](C)(c1c(OC(F)F)ccc(F)c1Cl)c1c[nH]c2ncc(-c3cnn([C@H]4CC[C@H](O)CC4)c3C)cc12", "pIC50": "≥ 6.70"}
{"Smiles notation": "COc1ccc(F)c(Cl)c1[C@@H](C)c1c[nH]c2ncc(-c3c(C)nn([C@H]4CC[C@H](O)CC4)c3C)cc12", "pIC50": "6.00 to 6.70"}

Report pIC50 for CNC(=O)[C@H]1CC[C@H](n2ncc(-c3cnc4[nH]cc([C@H](C)c5c(OC)ccc(F)c5Cl)c4c3)c2C)CC1 tested on RON (Homo sapiens). ≥ 6.70

How about Cc1c(-c2cnc3[nH]cc([C@H](C)c4c(OC(F)F)ccc(F)c4Cl)c3c2)cnn1[C@H]1CC[C@H](N2CCC[C@H]2C(=O)O)CC1 ? < 6.00

How about COc1ccc(F)c(Cl)c1[C@@H](C)c1c[nH]c2ncc(-c3cnn(C[C@@H](O)CO)c3C(F)(F)F)cc12 ? < 6.00

How about Cc1c(-c2cnc3[nH]cc([C@@H](CF)c4c(OC(F)F)ccc(F)c4Cl)c3c2)cnn1[C@H]1CC[C@H](O)CC1 ? 6.00 to 6.70

How about Cc1nn(C[C@H](O)CO)cc1-c1cnc2[nH]cc([C@H](C)c3c(OC(F)F)ccc(F)c3Cl)c2c1 ? ≥ 6.70

How about COc1ccc(F)c(Cl)c1[C@@H](C)c1c[nH]c2ncc(-c3c[nH]nc3C)cc12 ? 6.00 to 6.70

How about COc1ccc(F)c(Cl)c1[C@@H](C)c1c[nH]c2ncc(-c3cnn(C)c3Cl)cc12 ? < 6.00
